- Tested on: Leishmania donovani
- experiment_notes: Antileishmanial activity against axenic amastigote stage of Leishmania donovani assessed as growth inhibition after 72 hrs by Alamar Blue assay
- Assay type: functional, organism-based
Collected IC50 values appear next to each entry.

molecule	IC50
C=C1CC[C@H]2[C@@](C)(CCC[C@]2(C)C(=O)N2CCN(C)CC2)[C@@H]1CCc1ccoc1	> 10 µg/mL
C[C@@]12CCC[C@](C)(C(=O)NCC3CCCCC3)[C@H]1CCC(O)(CO)[C@H]2CCc1ccoc1 (some centres not stated)	> 10 µg/mL
COCCNC(=O)[C@@]1(C)CCC[C@@]2(C)[C@H](CCc3ccoc3)C(O)(CO)CC[C@@H]21 (some centres not stated)	> 10 µg/mL
C[C@@]12CCC[C@](C)(C(=O)N3CCOCC3)[C@H]1CCC(O)(CO)[C@H]2CCc1ccoc1 (some centres not stated)	> 10 µg/mL
C=C1CC[C@H]2[C@@](C)(CCC[C@]2(C)C(=O)NC2CCOCC2)[C@@H]1CCc1ccoc1	> 10 µg/mL
C=C1CC[C@H]2[C@@](C)(CCC[C@]2(C)C(=O)NCCOCCO)[C@@H]1CCc1ccoc1	> 10 µg/mL
C=C1CC[C@H]2[C@@](C)(CCC[C@]2(C)C(=O)NCCN(C)C)[C@@H]1CCc1ccoc1	> 10 µg/mL

Reference for the values: ChEMBL document CHEMBL3632568
